All figures here come from ChEMBL document CHEMBL4049405.

TEST_NAME: Cytotoxicity against HEK293T cells assessed as cell viability at 50 uM by CellTiter-Glo assay relative to control
PROTOCOL_CONDITIONS: human
Non-standard residues stand in square brackets, D forms with d. Residues, ends and D or L forms follow the SMILES beside them. *: point of attachment. X1 = O=C(OCCCS*)Oc1ccc2nc(C3=N[C@@H](C(=O)O)CS3)sc2c1; Mpa = O=C(O)CCS
Consider the following compounds; for each one, report its viability at 50 µM.
Answers are plain numbers, in %.

Record excerpt, results attached:
INSERT INTO measurements (compound, observable, unit_abbreviation, reading) VALUES
  ('CC(C)C[C@H](NC(=O)[C@H](CO)NC(=O)CNC(=O)CCSSCCCOC(=O)Oc1ccc2nc(C3=N[C@@H](C(=O)O)CS3)sc2c1)C(=O)N[C@@H](CCCCN)C(=O)N[C@H](C(=O)N[C@@H](CCCNC(=N)N)C(=O)N[C@H](C(=O)N[C@@H](CC(C)C)C(=O)N[C@@H](CCCCN)C(=O)N[C@@H](CCCNC(=N)N)C(N)=O)C(C)C)[C@@H](C)O ([Mpa](X1)GSLKTRVLKR-NH2)', 'viability at 50 µM', '%', 87),
  ('CC(C)C[C@H](NC(=O)CCSSCCCOC(=O)Oc1ccc2nc(C3=N[C@@H](C(=O)O)CS3)sc2c1)C(=O)N[C@@H](CCCCN)C(=O)N[C@H](C(=O)N[C@@H](CCCNC(=N)N)C(=O)N[C@H](C(=O)N[C@@H](CC(C)C)C(=O)N[C@@H](CCCCN)C(=O)N[C@@H](CCCNC(=N)N)C(=O)N[C@@H](Cc1c[nH]c2ccccc12)C(=O)N[C@@H](CCCCN)C(N)=O)C(C)C)[C@@H](C)O ([Mpa](X1)LKTRVLKRWK-NH2)', 'viability at 50 µM', '%', 87.8);

Next up:
Return reported viability at 50 µM; argument: CC(C)C[C@H](NC(=O)[C@H](CCCCN)NC(=O)[C@H](Cc1c[nH]c2ccccc12)NC(=O)[C@H](CCCNC(=N)N)NC(=O)[C@H](CCCCN)NC(=O)[C@H](CC(C)C)NC(=O)[C@@H](NC(=O)CCSSCCCOC(=O)Oc1ccc2nc(C3=N[C@@H](C(=O)O)CS3)sc2c1)C(C)C)C(=O)N[C@@H](Cc1ccccc1)C(=O)N[C@@H](CC(N)=O)C(=O)N[C@@H](CCCCN)C(N)=O ([Mpa](X1)VLKRWKLFNK-NH2)
95.9
